Target: T1, 14-3-3η, full length, N-terminally His6-tagged (human, UniProt Q04917 1-246)
T1 chain: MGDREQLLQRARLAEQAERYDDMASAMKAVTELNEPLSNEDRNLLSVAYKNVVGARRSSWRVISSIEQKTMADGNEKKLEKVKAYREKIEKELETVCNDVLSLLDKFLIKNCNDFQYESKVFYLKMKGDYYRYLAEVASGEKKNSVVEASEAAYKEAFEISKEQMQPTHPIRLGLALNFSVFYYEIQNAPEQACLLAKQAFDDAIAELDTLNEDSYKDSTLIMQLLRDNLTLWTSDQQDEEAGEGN
Test: FP
Primed or numbered codes have the meaning given here. Where no end group is shown, it is not given here. [ ]: non-standard residue; d: D form. The star is where a group is joined. PEG2′ = short PEG linker placed between the N-terminal FITC label and the peptide; FITC = O=C1OC2(c3ccc(O)cc3Oc3cc(O)ccc32)c2ccc(NC(=S)*)cc21; pS = N[C@@H](COP(=O)(O)O)C(=O)O
measured-parameter: Kd
Answer as a quantity: numeral, then unit.

# binder TTNPASATT (also: one phosphorylated Ser/Thr within Ser61–Thr64) [peptide 14, monophosphorylated APN 9-mer (noncanonical site of peptide 10)] ; its Kd = 70 µM

# binder {FITC-PEG2′}-EKNKNAN[pS]SPVASTTPSASATTNPASATTLDQSKAWNR (also: second phosphorylated Ser/Thr, site not given here) [fluorescently labeled peptide 8, APN 36–73, bis-phosphorylated] ; its Kd = 18 µM

# binder {FITC-PEG2′}-EKNKNAN[pS]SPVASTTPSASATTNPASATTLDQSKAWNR (also: second phosphorylated Ser/Thr, site not given here) [fluorescently labeled peptide 9, APN 36–73, bis-phosphorylated] ; its Kd = 15 µM

# binder {FITC-PEG2′}-EKNKNAN[pS]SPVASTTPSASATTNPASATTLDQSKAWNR (also: second phosphorylation within Ser61–Thr64, site not given here) [fluorescently labeled peptide 12, APN 36–73, bis-phosphorylated] ; its Kd = 0.18 µM
